Every entry's value here was drawn from paper PMC10490032.

Biological target: human recombinant MAO B (Homo sapiens, UniProt P27338)
Sequence (P27338 1-520): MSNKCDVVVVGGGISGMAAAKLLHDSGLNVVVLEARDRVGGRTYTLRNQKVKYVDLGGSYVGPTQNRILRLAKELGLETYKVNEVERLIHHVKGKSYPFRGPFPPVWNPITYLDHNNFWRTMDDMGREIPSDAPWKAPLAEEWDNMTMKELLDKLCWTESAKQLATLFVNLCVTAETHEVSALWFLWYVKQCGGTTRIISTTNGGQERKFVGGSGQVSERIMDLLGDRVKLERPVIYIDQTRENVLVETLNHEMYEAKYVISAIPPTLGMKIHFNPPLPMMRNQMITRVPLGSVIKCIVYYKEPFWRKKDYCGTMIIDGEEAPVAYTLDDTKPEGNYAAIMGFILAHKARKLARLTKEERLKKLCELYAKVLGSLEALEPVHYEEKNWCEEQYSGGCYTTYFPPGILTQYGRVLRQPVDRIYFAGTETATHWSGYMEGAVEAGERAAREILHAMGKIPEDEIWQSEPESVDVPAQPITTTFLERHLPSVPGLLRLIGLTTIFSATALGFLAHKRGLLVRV
Assay: MAO B inhibition, kynuramine assay (4-hydroxyquinoline fluorescence)
Settings: KI (inhibition constant for the free enzyme) vs. MAO B, global fit, mixed model; inhibitor 0.25–2 μM; kynuramine varied
experimental-readout: Ki (nM)

1) COc1ccccc1CNCCCCCCNc1ccc(CCc2ccc(NCCCCCCNCc3ccccc3OC)cc2)cc1 :: 310

----------
Molecular target: human recombinant MAO A (Homo sapiens)
Sequence (P21397 1-527): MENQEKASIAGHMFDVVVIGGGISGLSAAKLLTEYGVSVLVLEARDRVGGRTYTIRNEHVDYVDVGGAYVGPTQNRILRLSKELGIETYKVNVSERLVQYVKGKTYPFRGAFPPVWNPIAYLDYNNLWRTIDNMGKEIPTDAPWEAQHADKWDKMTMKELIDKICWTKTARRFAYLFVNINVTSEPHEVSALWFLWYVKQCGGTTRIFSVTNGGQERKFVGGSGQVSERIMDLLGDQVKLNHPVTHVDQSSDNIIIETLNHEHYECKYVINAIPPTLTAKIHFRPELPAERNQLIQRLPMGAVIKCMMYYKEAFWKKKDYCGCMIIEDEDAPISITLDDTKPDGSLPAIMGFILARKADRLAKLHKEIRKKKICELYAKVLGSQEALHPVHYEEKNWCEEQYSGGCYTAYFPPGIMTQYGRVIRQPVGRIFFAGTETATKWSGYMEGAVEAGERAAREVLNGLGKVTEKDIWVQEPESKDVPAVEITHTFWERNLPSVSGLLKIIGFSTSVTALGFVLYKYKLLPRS
Test: MAO A inhibition, kynuramine assay (4-hydroxyquinoline fluorescence)
Conditions: KIES (dissociation constant for the enzyme–substrate complex) vs. MAO A, global fit, mixed model; inhibitor 0.25–2 μM; kynuramine varied
pKi: −log10 of the molar value.
experimental-readout: pKi

1) COc1ccccc1CNCCCCCCNc1ccc(CCc2ccc(NCCCCCCNCc3ccccc3OC)cc2)cc1 [Compound 4] :: 4.96
